# tested system: Mu-type opioid receptor (Mus musculus, UniProt P42866)
# Sequence (P42866 whole entry): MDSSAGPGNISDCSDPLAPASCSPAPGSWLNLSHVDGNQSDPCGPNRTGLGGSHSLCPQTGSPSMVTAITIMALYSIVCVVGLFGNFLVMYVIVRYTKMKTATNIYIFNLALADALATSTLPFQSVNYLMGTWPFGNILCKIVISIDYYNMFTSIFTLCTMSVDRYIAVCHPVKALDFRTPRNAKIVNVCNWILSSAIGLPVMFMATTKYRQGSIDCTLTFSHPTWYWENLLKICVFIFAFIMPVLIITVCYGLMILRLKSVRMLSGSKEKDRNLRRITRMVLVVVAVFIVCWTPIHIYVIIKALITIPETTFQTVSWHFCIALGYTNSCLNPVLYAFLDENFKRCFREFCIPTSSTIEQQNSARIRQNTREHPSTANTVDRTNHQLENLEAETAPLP
# assay notes: Displacement of [3H]DAMGO from mu opioid receptor in mouse whole brain membranes without cerebellum
measured metric: log10(Ki) (log10 of the value in nM)
Log scale reminder: Ki in nM, then log10 taken.

Solved entries:
>  <smi>
Oc1ccc2c(c1)[C@]13CCN(Cc4ccccc4)[C@H](C2)[C@@H]1Cc1cc2ccccc2nc1C3

>  <log10(Ki)>
1.89

$$$$
>  <smi>
Oc1ccc2c(c1)[C@]13CCN(CC4CCCC4)[C@H](C2)[C@@H]1Cc1cc2ccccc2nc1C3

>  <log10(Ki)>
1.30

$$$$
>  <smi>
CN1CC[C@]23Cc4nc5ccccc5cc4C[C@H]2[C@H]1Cc1ccc(O)cc13

>  <log10(Ki)>
1.37

$$$$

For this molecule ( Oc1ccc2c(c1)[C@]13CCN(CC4CCC4)[C@H](C2)[C@@H]1Cc1cc2ccccc2nc1C3 ), measured log10(Ki) is 0.80

For this molecule ( Oc1ccc2c(c1)[C@]13CCN(CCc4ccccc4)[C@H](C2)[C@@H]1Cc1cc2ccccc2nc1C3 ), measured log10(Ki) is 1.10

----------
# tested system: Delta-type opioid receptor (Mus musculus, UniProt P32300)
# Sequence (P32300 whole entry): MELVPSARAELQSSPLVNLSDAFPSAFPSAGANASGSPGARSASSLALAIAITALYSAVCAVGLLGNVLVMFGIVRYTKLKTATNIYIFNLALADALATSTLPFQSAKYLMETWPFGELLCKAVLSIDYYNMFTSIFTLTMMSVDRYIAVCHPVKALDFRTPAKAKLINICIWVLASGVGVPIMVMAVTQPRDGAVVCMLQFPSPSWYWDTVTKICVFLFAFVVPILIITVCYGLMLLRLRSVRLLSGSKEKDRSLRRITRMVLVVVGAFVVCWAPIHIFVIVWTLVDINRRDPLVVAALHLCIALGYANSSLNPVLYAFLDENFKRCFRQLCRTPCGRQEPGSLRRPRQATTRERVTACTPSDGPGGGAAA
# assay notes: Displacement of [3H]DPDPE from delta opioid receptor in mouse whole brain membranes without cerebellum
measured metric: pKi
Lab note: report pKi as minus log10 of the concentration in molar units, number only.

>  <smi>
Oc1ccc2c(c1)[C@]13CCN(CCc4ccccc4)[C@H](C2)[C@@H]1Cc1cc2ccccc2nc1C3

>  <tested system>
Delta-type opioid receptor (Mus musculus, UniProt P32300)

>  <pKi>
8.33

$$$$

For this compound ( Oc1ccc2c(c1)[C@]13CCN(CC4CCCC4)[C@H](C2)[C@@H]1Cc1cc2ccccc2nc1C3 ), measured pKi is 9.46

For this compound ( Oc1ccc2c(c1)[C@]13CCN(CC4CCC4)[C@H](C2)[C@@H]1Cc1cc2ccccc2nc1C3 ), measured pKi is 9.92

For this compound ( Oc1ccc2c(c1)[C@]13CCN(Cc4ccccc4)[C@H](C2)[C@@H]1Cc1cc2ccccc2nc1C3 ), measured pKi is 7.91

For this compound ( CN1CC[C@]23Cc4nc5ccccc5cc4C[C@H]2[C@H]1Cc1ccc(O)cc13 ), measured pKi is 9.54

----------
# assay notes: Selectivity ratio of Ki for kappa opioid receptor in guinea pig cerebrum membranes to Ki for delta opioid receptor in rat cerebrum membranes
# Assay type: cell membranes
# conditions: Membrane
The following compounds are listed with their measured Ratio Ki values.
Reply: number alone, nothing else.

>  <smi>
CC(C)CN1CC[C@]23Cc4nc5ccccc5cc4C[C@H]2[C@H]1Cc1cccc(O)c13

>  <Ratio Ki>
423

$$$$

We next turn to a different compound, shown below.
For this compound ( CN1CC[C@]2(c3cccc(O)c3)Cc3nc4ccccc4cc3C[C@H]2C1 ), measured Ratio Ki is 509

----------
# tested system: Kappa-type opioid receptor (Cavia porcellus, UniProt P41144)
# Sequence (P41144 whole entry): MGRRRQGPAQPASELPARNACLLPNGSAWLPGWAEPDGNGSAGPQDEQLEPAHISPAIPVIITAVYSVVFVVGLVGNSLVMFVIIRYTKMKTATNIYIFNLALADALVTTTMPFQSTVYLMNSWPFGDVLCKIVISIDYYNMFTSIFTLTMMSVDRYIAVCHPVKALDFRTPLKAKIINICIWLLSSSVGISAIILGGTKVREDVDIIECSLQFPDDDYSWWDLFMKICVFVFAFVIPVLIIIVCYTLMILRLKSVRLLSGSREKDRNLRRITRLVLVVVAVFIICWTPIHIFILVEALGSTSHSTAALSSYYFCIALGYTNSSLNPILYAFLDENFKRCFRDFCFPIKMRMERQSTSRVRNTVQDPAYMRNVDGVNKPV
# assay notes: Displacement of [3H]U-69,593 from kappa opioid receptor in guinea pig cerebellum membranes
# Format: cell membranes, Membrane
The threshold is 0.004 µM. Values of Ki beneath it are tagged yes (1); values meeting or exceeding it are tagged no (0).

query: Input CN1CC[C@]23Cc4nc5ccccc5cc4C[C@H]2[C@H]1Cc1ccc(O)cc13 ; condition: Ki strictly below 0.004 µM. Does it hold?
result: no (0)

query: Input Oc1ccc2c(c1)[C@]13CCN(CC4CCCC4)[C@H](C2)[C@@H]1Cc1cc2ccccc2nc1C3 ; condition: Ki strictly below 0.004 µM. Does it hold?
result: yes (1)

query: Input Oc1ccc2c(c1)[C@]13CCN(CC4CCC4)[C@H](C2)[C@@H]1Cc1cc2ccccc2nc1C3 ; condition: Ki strictly below 0.004 µM. Does it hold?
result: yes (1)

query: Input Oc1ccc2c(c1)[C@]13CCN(CCc4ccccc4)[C@H](C2)[C@@H]1Cc1cc2ccccc2nc1C3 ; condition: Ki strictly below 0.004 µM. Does it hold?
result: no (0)

query: Input Oc1ccc2c(c1)[C@]13CCN(Cc4ccccc4)[C@H](C2)[C@@H]1Cc1cc2ccccc2nc1C3 ; condition: Ki strictly below 0.004 µM. Does it hold?
result: no (0)
